study_system: T1, human TIGIT on Jurkat cells (TIGIT/NFAT reporter Jurkat cells, BPS Bioscience #60538); Promega TIGIT Effector … (human, UniProt Q495A1 22-244)
T1 construct: whole, on cells; Same protein on two bought Jurkat lines (flow cytometry: BPS; bioassay: Promega); also called hu TIGIT cells; cells expressing human TIGIT
T1 sequence (looked up): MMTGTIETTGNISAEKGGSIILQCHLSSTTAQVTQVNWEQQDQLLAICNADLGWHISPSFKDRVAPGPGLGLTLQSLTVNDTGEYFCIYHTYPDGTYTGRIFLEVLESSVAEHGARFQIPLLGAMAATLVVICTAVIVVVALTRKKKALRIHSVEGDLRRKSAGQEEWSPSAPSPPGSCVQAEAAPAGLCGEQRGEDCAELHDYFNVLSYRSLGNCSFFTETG
method_summary: flow cytometry, TIGIT/NFAT Jurkat cells, 10 ug/ml
endpoint_name: MFI (MFI)
// return numeric value only (unit: MFI, not printed)

# input binder: 43586p2.C01 (scFv, V domains shown) VH: EVQLLESGGGLVQPGGSLRLSCAASGFTFSDYYMNWVRQAPGKGLEYVASINWNGGTTYYADSVKGRFTISRDNSKNTLYLQMNSLRAEDTAVYYCAKDQNWNFYYGMDVWGQGTTVTVSS VL: QSVLTQPPSASGTPGQRVTISCSGGSSNIGNNFVSWYQQLPGTAPKLLIYNEIKRPSGVPDRFSASKSGTSASLAISGLQSEDEADYYCASWDGSLRGWVFGGGTKLTVL ; wanted: its MFI
7770
